- target: T1, human chemokine (C-C motif) receptor 8 (CCR8) protein (human, UniProt P51685 1-355)
- T1 construct: whole, on cells; also called human CCR8
- assay info: cell binding, CCR8-expressing U2OS cells, curve fit
measured property: Top

- binder: "88-H1L2 (antibody, V domains shown, Humanized 88D2C6) VH: EVQLVESGGGLVQPGGSLKLSCAASGFTFNPNAMNWVRQASGKGLEWVGRIRSKSNNYATYYADSVKDRFTISRDDSKNTAYLQMNSLKTEDTAVYYCTRGKDDGYRHYAMDYWGQGTTVTVSS VL: DIVMTQSPLSLPVTPGEPASISCRSSKSLLHSNANTYLYWFLQKPGQSPQLLIYRMSNLASGVPDRFSGSGSGTAFTLKISRVEAEDVGVYYCMQHLEYPFTFGGGTKVEIK"
  test result: 28900
